target: HLA-A*2401 (human); test: inhibition of 125I probe peptide binding to purified HLA; IC50 standard/IC50 test
Label scheme for relative binding ratio: lower than 0.0005 is no, 0.0005 and above is yes.

| binder | assigned_class |
| --- | --- |
| AFGTVYKGIWI [HER2/neu 730-740] | yes |
| CFVHTVPWDQL [HER2/neu 475-485] | no |
| RYSEDPTVPL [HER2/neu 1111-1120] | yes |
| CMQIAKGMSYL [HER2/neu 826-836] | no |
| GMGAAKGL [HER2/neu 1091-1098] | no |
| KWMALESI [HER2/neu 887-894] | yes |
| DFGLARLLDI [HER2/neu 863-872] | no |
| RFRELVSEF [HER2/neu 968-976] | yes |

Sourced from patent US20040018971A1
